System: P. aeruginosa expressing IMP-1, efflux+ (MB9798)
Type: cell-based, Pseudomonas aeruginosa
condition-info: ratio MITC95 PA_9798/MITC95 PA_9799
Assignment: determine reported Efflux ratio for the given molecules.
Give bare numbers.

molecule	test-result
NCCS(=O)(=O)c1ccc(-c2cccc3nc(C(=O)O)nn23)c(-c2nnn[nH]2)c1S(N)(=O)=O	2.00

Below are 5 molecules. Give each one its Efflux ratio.
1. NS(=O)(=O)c1c(S(=O)(=O)C2CNC2)ccc(-c2cccc3sc(O)nc23)c1-c1nn[nH]n1
2. Nc1nc2c(-c3ccc(S(=O)(=O)CC4(N)CC4)c(S(N)(=O)=O)c3-c3nn[nH]n3)cccc2s1
3. CC(=O)Nc1ccc(-c2ccc(S(=O)(=O)CCN)c(S(N)(=O)=O)c2-c2nnn[nH]2)cn1.O=C(O)C(F)(F)F
4. NCCS(=O)(=O)c1ccc(-c2cccc3[nH]c([C@H](N)CO)nc23)c(-c2nn[nH]n2)c1S(N)(=O)=O
5. C[C@H](N)CS(=O)(=O)c1ccc(-c2cccc3c2nc(N)n3C)c(-c2nn[nH]n2)c1S(N)(=O)=O

1. 2.00
2. 2.00
3. 2.00
4. 2.00
5. 2.00

Quick request: Efflux ratio for each listed item, please.
1. Cn1cc2cc(-c3ccc(S(=O)(=O)CCN)c(S(N)(=O)=O)c3-c3nnn[nH]3)ccc2n1.O=C(O)C(F)(F)F
2. Nc1cc2cccc(-c3ccc(S(=O)(=O)C4CNC4)c(S(N)(=O)=O)c3-c3nn[nH]n3)c2cn1
3. Nc1nnc(-c2cccc(-c3ccc(S(=O)(=O)C4CNC4)c(S(N)(=O)=O)c3-c3nnn[nH]3)c2)o1

1. 4.00
2. 1.00
3. 15.99

Can you give me Efflux ratio for all of these, one by one?
1. Cc1nc(N)ccc1-c1ccc(S(=O)(=O)CCN)c(S(N)(=O)=O)c1-c1nnn[nH]1.O=C(O)C(F)(F)F
2. CN(C)CCS(=O)(=O)c1ccc(-c2cccc3sc(N)nc23)c(-c2nn[nH]n2)c1S(N)(=O)=O
3. Nc1nc2cc(-c3ccc([S+]([O-])C4CNC4)c(S(N)(=O)=O)c3-c3nn[nH]n3)ccc2[nH]1 (stereo not drawn)

4.00
1.00
8.00

====

Provide the recorded pIC50 for the entries that follow.
system: IMP-1 (Serratia marcescens)
experiment-notes: biochemical
Assay type: biochemical
condition-info: CCF2-FA substrate, 2 hours at 25° C; read-out: IMP-1 IC50
Numbers only, as −log10 of the molar value.

Use these answered entries as a reference point.
NCCS(=O)(=O)c1ccc(-c2cccc3cc(N)ncc23)c(-c2nn[nH]n2)c1S(N)(=O)=O 9.67
NCCS(=O)(=O)c1ccc(-c2cccc3[nH]c([C@H](N)CNC(=O)C(F)(F)F)nc23)c(-c2nn[nH]n2)c1S(N)(=O)=O 8.47
Nc1nc2c(-c3ccc(S(=O)(=O)C4CNC4)c(S(N)(=O)=O)c3-c3nn[nH]n3)cccn2n1 8.78

Proceeding to the next compound to report its pIC50.
Please tell me: pIC50 of NS(=O)(=O)c1c(S(=O)(=O)CCO)ccc(-c2cccc3c2ccc[n+]3[O-])c1-c1nn[nH]n1 , system IMP-1 (Serratia marcescens)?
8.97

====

system: IMP-1 (Serratia marcescens)
experiment-notes: biochemical
Format: biochemical
condition-info: CCF2-FA substrate, 2 hours at 25° C; read-out: IMP-1 IC50
For each of the compounds below, state its pIC50.
Answers are plain numbers, as −log10 of the molar value.

compound	pIC50
Cn1c(N)nc2c(-c3ccc(S(=O)(=O)CCCN)c(S(N)(=O)=O)c3-c3nn[nH]n3)cccc21 [Example 195]	9.60
NS(=O)(=O)c1c(S(=O)(=O)C2CNC2)ccc(-c2ccc3cnccc3c2)c1-c1nnn[nH]1.O=C(O)C(F)(F)F [Example 116, 2,2,2-trifluoroacetate]	9.14
NCCS(=O)(=O)c1ccc(-c2cccc3sc(C(N)=O)nc23)c(-c2nn[nH]n2)c1S(N)(=O)=O [Example 89]	9.22

Now turn to the next compound.
Quick one: pIC50 for NCCS(=O)(=O)c1ccc(-c2cnc3[nH]ccc3c2)c(-c2nnn[nH]2)c1S(N)(=O)=O.O=C(O)C(F)(F)F [Example 149, 2,2,2-trifluoroacetate] ?
9.07

====

system: NDM-1 (Klebsiella pneumoniae, UniProt C7C422)
Sequence (C7C422 whole entry, looked up, species assumed): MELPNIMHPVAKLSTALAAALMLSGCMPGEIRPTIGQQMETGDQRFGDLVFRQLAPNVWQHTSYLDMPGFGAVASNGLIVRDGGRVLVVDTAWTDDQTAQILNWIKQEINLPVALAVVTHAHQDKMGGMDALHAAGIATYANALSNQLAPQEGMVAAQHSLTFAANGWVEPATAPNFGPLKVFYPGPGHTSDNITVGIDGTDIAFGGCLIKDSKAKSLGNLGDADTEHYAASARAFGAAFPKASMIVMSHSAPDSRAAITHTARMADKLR
experiment-notes: biochemical
Assay type: biochemical
condition-info: CCF2-FA substrate, 2 hours at 25° C; read-out: NDM-1 IC50
measured-quantity: log10 of IC50 (log10 of the value in nM)
// units: nM (pre-log); metric: IC50; scale: log10

Use these answered entries as a reference point.
molecule	log10 of IC50
Cc1cc(-c2ccc(S(=O)(=O)C3CNC3)c(S(N)(=O)=O)c2-c2nnn[nH]2)cnc1C#N.O=C(O)C(F)(F)F [Example 99, 2,2,2-trifluoroacetate]	0.60
N#CC1(c2ccc(-c3ccc(S(=O)(=O)CCN)c(S(N)(=O)=O)c3-c3nnn[nH]3)cn2)CNC1.O=C(O)C(F)(F)F [Example 132, 2,2,2-trifluoroacetate]	0.54
NC[C@H](N)CS(=O)(=O)c1ccc(-c2ccc(N)nc2)c(-c2nn[nH]n2)c1S(N)(=O)=O	0.07
Cn1cc2ccc(-c3ccc(S(=O)(=O)CCN)c(S(N)(=O)=O)c3-c3nnn[nH]3)cc2n1.O=C(O)C(F)(F)F [Example 154, 2,2,2-trifluoroacetate]	0.05

Quick batch: log10 of IC50 for everything below.
1. Cn1cc2cc(-c3ccc(S(=O)(=O)CCN)c(S(N)(=O)=O)c3-c3nnn[nH]3)ccc2n1.O=C(O)C(F)(F)F [Example 153, 2,2,2-trifluoroacetate]
2. Nc1nc2cc(F)cc(-c3ccc(S(=O)(=O)C4CNC4)c(S(N)(=O)=O)c3-c3nnn[nH]3)c2[nH]1
3. NCCS(=O)(=O)c1ccc(-c2cccc3ncccc23)c(-c2nn[nH]n2)c1S(N)(=O)=O
4. CNC(=O)c1ccc(-c2ccc(S(=O)(=O)CCN)c(S(N)(=O)=O)c2-c2nnn[nH]2)cn1.O=C(O)C(F)(F)F [Example 139, 2,2,2-trifluoroacetate]

[-0.23, -1.10, -0.65, 0.60]

====

system: IMP-1 (Serratia marcescens)
experiment-notes: biochemical
Assay type: biochemical
condition-info: CCF2-FA substrate, 2 hours at 25° C; read-out: IMP-1 IC50
Would you mind telling me the reported IC50 of each entry?
One number for each entry, in nM.

compound	IC50, nM
NCCS(=O)(=O)c1ccc(-c2ccnc3[nH]ccc23)c(-c2nnn[nH]2)c1S(N)(=O)=O.O=C(O)C(F)(F)F [Example 142, 2,2,2-trifluoroacetate]	0.517
Nc1nc2c(-c3ccc(S(=O)(=O)CCO)c(S(N)(=O)=O)c3-c3nn[nH]n3)cccc2c[n+]1[O-]	1.92

# ---- query compound ----
State the recorded IC50 for this entry: Nc1nc2c(-c3ccc(S(=O)(=O)c4ccccn4)c(S(N)(=O)=O)c3-c3nnn[nH]3)cccc2s1
0.203

====

system: IMP-1 (Serratia marcescens, UniProt P52699)
Sequence (P52699 whole entry, looked up, species assumed): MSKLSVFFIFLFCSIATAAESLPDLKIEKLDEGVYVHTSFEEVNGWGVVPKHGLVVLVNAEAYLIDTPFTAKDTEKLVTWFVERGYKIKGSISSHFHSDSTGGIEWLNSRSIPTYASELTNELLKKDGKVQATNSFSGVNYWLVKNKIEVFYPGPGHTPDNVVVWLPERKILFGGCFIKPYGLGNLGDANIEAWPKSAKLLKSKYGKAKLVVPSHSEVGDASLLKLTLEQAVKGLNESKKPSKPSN
experiment-notes: biochemical
Format: biochemical
condition-info: CCF2-FA substrate, 2 hours at 25° C; read-out: IMP-1 IC50
Labels assigned by IC50 range: lower level: < 0.9 nM; middle level: ≥ 0.9 nM and < 2 nM; upper level: ≥ 2 nM

Examples with answers:
compound	system	category
CCn1c(N)nc2c(-c3ccc(S(=O)(=O)CCN)c(S(N)(=O)=O)c3-c3nn[nH]n3)cccc21	IMP-1 (Serratia marcescens, UniProt P52699)	lower level
Nc1nc2c(-c3ccc(S(=O)(=O)C4CNC4)c(S(N)(=O)=O)c3-c3nn[nH]n3)cccc2c(=O)[nH]1	IMP-1 (Serratia marcescens, UniProt P52699)	middle level

Could you place NS(=O)(=O)c1c(Sc2ccncc2)ccc(-c2ccc(C3CCNCC3)cc2)c1-c1nn[nH]n1 in its proper category? Many thanks.
upper level

Categorize the following entry: NS(=O)(=O)c1c(S(=O)(=O)C2CNC2)ccc(-c2cnc(N3CCCC3)s2)c1-c1nnn[nH]1.O=C(O)C(F)(F)F [Example 121, 2,2,2-trifluoroacetate]
upper level

Textbook exercise: identify the category of the compound given here, NCCS(=O)(=O)c1ccc(-c2cccc3c2nc(N)n3C2CNC2)c(-c2nn[nH]n2)c1S(N)(=O)=O , according to its measured value.
lower level

Consider NCCS(=O)(=O)c1ccc(-c2ccc3nncn3c2)c(-c2nnn[nH]2)c1S(N)(=O)=O.O=C(O)C(F)(F)F [Example 146, 2,2,2-trifluoroacetate] . To which IC50 class does it belong?
upper level

Form: Item = Nc1nc2c(-c3ccc(S(=O)(=O)C4CNC4)c(S(N)(=O)=O)c3-c3nn[nH]n3)ccc(C(F)(F)F)c2s1 ; Class = ?
lower level

Class for Nc1ncccc1-c1cc(-c2ccc(S(=O)(=O)C3CNC3)c(S(N)(=O)=O)c2-c2nnn[nH]2)ccn1 ?
upper level

Entry Nc1nc2cc(-c3ccc(S(=O)(=O)C4CNC4)c(S(N)(=O)=O)c3-c3nn[nH]n3)ccc2o1 belongs to which category?
middle level

Which bin should I file N#Cc1cc(-c2ccc(S(=O)(=O)C3CNC3)c(S(N)(=O)=O)c2-c2nnn[nH]2)c2[nH]c(N)nc2c1 under?
middle level

Quick check: band for Nc1nccc(-c2ccc(S(=O)(=O)C3CNC3)c(S(N)(=O)=O)c2-c2nn[nH]n2)c1N
upper level

Each compound maps to one class by IC50. Which class for NCCS(=O)(=O)c1ccc(-c2cccc3c2NC(=O)C3O)c(-c2nnn[nH]2)c1S(N)(=O)=O (stereo not shown) ?
middle level

The measurements presented in this section are drawn from patent US10227331B2.
